Recorded Percentage Cytopathic Effect, one value per entry.
Test system: encephelomyocarditis virus
Assay: Antiviral assay: cytopathic effect in HeLa cells
Format: cell-based, human
Conditions: relative CM concentration .008X
measurement_kind: Percentage Cytopathic Effect (%)

molecule	measurement_kind	test_value
IL-29: human IL-29, previously designated zcyto21, SEQ ID NO:4 (protein, listed as Homo sapiens, SIGNAL (1)...(19)) MAAAWTVVLVTLVLGLAVAGPVPTSKPTTTGKGCHIGRFKSLSPQELASFKKARDALEESLKLKNWSCSSPVFPGNWDLRLLQVRERPVALEAELALTLKVLEAAAGPALEDVLDQPLHTLHHILSQLQACIQPQPTAGPRPRGRLHHWLHRLQEAPKKESAGCLEASVTFNLFRLLTRDLKYVADGNLCLRTSTHPEST	Percentage Cytopathic Effect	56
IL-28B: human IL-28B, previously designated zcyto22, SEQ ID NO:6 (protein, listed as Homo sapiens, SIGNAL (1)...(25)) MKLDMTGDCMPVLVLMAAVLTVTGAVPVARLRGALPDARGCHIAQFKSLSPQELQAFKRAKDALEESLLLKDCKCRSRLFPRTWDLRQLQVRERPVALEAELALTLKVLEATADTDPALGDVLDQPLHTLHHILSQLRACIQPQPTAGPRTRGRLHHWLHRLQEAPKKESPGCLEASVTFNLFRLLTRDLNCVASGDLCV	Percentage Cytopathic Effect	0
IL-28A: human IL-28A, previously designated zcyto20, SEQ ID NO:2 (protein, listed as Homo sapiens, SIGNAL (1)...(25)) MKLDMTGDCTPVLVLMAAVLTVTGAVPVARLHGALPDARGCHIAQFKSLSPQELQAFKRAKDALEESLLLKDCRCHSRLFPRTWDLRQLQVRERPMALEAELALTLKVLEATADTDPALVDVLDQPLHTLHHILSQFRACIQPQPTAGPRTRGRLHHWLYRLQEAPKKESPGCLEASVTFNLFRLLTRDLNCVASGDLCV	Percentage Cytopathic Effect	10
zcyto24: mouse IL-28, SEQ ID NO:8 (protein, listed as Mus musculus, SIGNAL (1)...(28)) MKPETAGGHMLLLLLPLLLAAVLTRTQADPVPRATRLPVEAKDCHIAQFKSLSPKELQAFKKAKDAIEKRLLEKDLRCSSHLFPRAWDLKQLQVQERPKALQAEVALTLKVWENMTDSALATILGQPLHTLSHIHSQLQTCTQLQATAEPRSPSRRLSRWLHRLQEAQSKETPGCLEASVTSNLFRLLTRDLKCVANGDQCV	Percentage Cytopathic Effect	0
zcyto25: mouse IL-28, SEQ ID NO:10 (protein, listed as Mus musculus, SIGNAL (1)...(28)) MKPETAGGHMLLLLLPLLLAAVLTRTQADPVPRATRLPVEAKDCHIAQFKSLSPKELQAFKKAKGAIEKRLLEKDMRCSSHLISRAWDLKQLQVQERPKALQAEVALTLKVWENINDSALTTILGQPLHTLSHIHSQLQTCTQLQATAEPKPPSRRLSRWLHRLQEAQSKETPGCLEDSVTSNLFQLLLRDLKCVASGDQCV	Percentage Cytopathic Effect	10
